- target: human dopamine D2,L receptors (Homo sapiens, UniProt P14416)
- Sequence (P14416 whole entry): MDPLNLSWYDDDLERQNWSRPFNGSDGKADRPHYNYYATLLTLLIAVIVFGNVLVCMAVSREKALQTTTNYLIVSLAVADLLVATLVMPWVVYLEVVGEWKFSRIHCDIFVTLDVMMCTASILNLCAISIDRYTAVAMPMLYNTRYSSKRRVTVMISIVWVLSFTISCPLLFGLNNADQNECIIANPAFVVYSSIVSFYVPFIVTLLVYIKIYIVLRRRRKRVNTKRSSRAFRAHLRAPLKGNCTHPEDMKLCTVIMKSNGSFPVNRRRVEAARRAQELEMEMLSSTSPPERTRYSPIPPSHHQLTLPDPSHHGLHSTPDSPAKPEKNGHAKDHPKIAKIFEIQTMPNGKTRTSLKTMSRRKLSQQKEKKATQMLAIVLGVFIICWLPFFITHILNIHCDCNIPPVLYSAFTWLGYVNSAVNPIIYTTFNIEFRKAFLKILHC
- experiment: Inhibition of forskolin-induced [3H]-cAMP accumulation in CHO-K1 cells
Measured EC50 of individual entries
endpointName: EC50

compound: COCCCC/C(=N\OCCN)c1ccc(C(F)(F)F)cc1
target: human dopamine D2,L receptors (Homo sapiens, UniProt P14416)
endpointName: EC50
recordedValue: > 1 µM

compound: Cn1cc(CCCN2CCN(c3cccc4[nH]c(=O)oc34)CC2)c2cc(F)ccc21
target: human dopamine D2,L receptors (Homo sapiens, UniProt P14416)
endpointName: EC50
recordedValue: > 1 µM

compound: CNCCCN1c2ccccc2CCc2ccccc21
target: human dopamine D2,L receptors (Homo sapiens, UniProt P14416)
endpointName: EC50
recordedValue: > 1 µM

compound: Fc1ccc([C@@H]2CCNC[C@H]2COc2ccc3c(c2)OCO3)cc1
target: human dopamine D2,L receptors (Homo sapiens, UniProt P14416)
endpointName: EC50
recordedValue: > 1 µM

compound: O=c1[nH]c2cccc(N3CCN(CCCc4c[nH]c5ccccc45)CC3)c2o1
target: human dopamine D2,L receptors (Homo sapiens, UniProt P14416)
endpointName: EC50
recordedValue: < 0.001 µM

compound: Cc1cccc2c(CCCN3CCN(c4cccc5[nH]c(=O)oc45)CC3)c[nH]c12
target: human dopamine D2,L receptors (Homo sapiens, UniProt P14416)
endpointName: EC50
recordedValue: < 0.001 µM

compound: CCN(CC)C(=O)C1(c2ccccc2)CC1CN (stereo not shown)
target: human dopamine D2,L receptors (Homo sapiens, UniProt P14416)
endpointName: EC50
recordedValue: > 1 µM
